# Test system: MDA-MB-231
# Test Method Notes: Antiproliferative activity against human MDA-MB-231 cells after 3 days by MTT assay
# Format: functional, cell-based
# Experimental Setup: MDA-MB-231, 72 h
Item-by-item account of pIC50
Kindly note that pIC50 refers to -log10 of the concentration in mol/L and answer with the value alone.

>  <Smiles Record>
CC1(C)[C@@H](O)CC[C@]2(C)[C@H]3CC[C@@H]4[C@H]5[C@H]([C@]6(C)CO6)CC[C@]5(C(=O)O)CC[C@@]4(C)[C@]3(C)CC[C@@H]12

>  <Tgt>
MDA-MB-231

>  <pIC50>
5.39

$$$$

Data request: What does the data say about its pIC50? Entry: `C=C(C)[C@@H]1CC[C@]2(C(=O)O)CC[C@]3(C)[C@H](CC[C@@H]4[C@@]5(C)CC[C@H](OS(=O)(=O)c6ccccc6)C(C)(C)[C@@H]5CC[C@]43C)[C@@H]12`
Data returned: 6.10
